Tested on: RXF 393 renal
Experiment: NCI-60 one-dose screen, 48 h (100 = growth as untreated, 0 = no growth, -100 = all killed)
Details: 10 µM unless noted
The panel holds about 83,000 compounds, 20% with a hit somewhere; the sample as a whole holds those more often.
Below, each entry is listed with its recorded growth.
reportedEndpoint: growth (%)

{"molecule": "COc1cc(/C=C/C(=O)c2ccc(C)cc2)ccc1Oc1nc(NCCO)nc(N2CCOCC2)n1", "testedSystem": "RXF 393 renal", "unitAnnotation": "%", "measValue": 82.1}
{"molecule": "COc1ccc(N/N=C/c2c(-c3ccc(S(C)(=O)=O)cc3)nc3ccccn23)cc1", "testedSystem": "RXF 393 renal", "unitAnnotation": "%", "measValue": 79.3}
{"molecule": "CN1C(=O)N(c2ccccc2)C2N=C(N/N=C/c3ccccc3)SC21 (stereo not drawn)", "testedSystem": "RXF 393 renal", "unitAnnotation": "%", "measValue": -2.78}
{"molecule": "OC1CCN(CCCOc2c3ccccc3nc3c2oc2ccccc23)CC1", "testedSystem": "RXF 393 renal", "unitAnnotation": "%", "measValue": -43.1}
{"molecule": "COc1cc(-c2ccc3ncnc(NC(C)c4ccccc4)c3c2)cnc1OC (stereo not drawn)", "testedSystem": "RXF 393 renal", "unitAnnotation": "%", "measValue": 26}
{"molecule": "C/C(=N\\NC(N)=O)c1c(O)sc(=O)[nH]c1=O", "testedSystem": "RXF 393 renal", "unitAnnotation": "%", "measValue": 107}
{"molecule": "O=c1[nH]c2ccc(Cl)cc2cc1CSc1ccccc1Nc1nccc(-c2ccc(Cl)cc2)n1", "testedSystem": "RXF 393 renal", "unitAnnotation": "%", "measValue": 84.7}
{"molecule": "CS(=O)(=O)c1ccc(-n2cc(/C=C/C(=O)c3ccc(NC(=O)CO[N+](=O)[O-])cc3)c(-c3ccc(Cl)cc3)n2)cc1", "testedSystem": "RXF 393 renal", "unitAnnotation": "%", "measValue": 86.8}
{"molecule": "O=C(CSc1nccc(=O)[nH]1)Nc1ccc(-c2nc3ccccc3[nH]2)cc1", "testedSystem": "RXF 393 renal", "unitAnnotation": "%", "measValue": 128}
{"molecule": "CN(C)CCCOc1c2ccc(Cl)cc2nc2c1oc1ccc(Cl)cc12", "testedSystem": "RXF 393 renal", "unitAnnotation": "%", "measValue": -86.6}
{"molecule": "COc1ccccc1/C=C/C=N/NC1=NC2C(S1)N(C)C(=O)N2C (stereo not drawn)", "testedSystem": "RXF 393 renal", "unitAnnotation": "%", "measValue": -20.8}
{"molecule": "C=CCn1c(SCC(=O)c2ccc(Br)cc2)nnc1-c1c[nH]c2ccccc12", "testedSystem": "RXF 393 renal", "unitAnnotation": "%", "measValue": 113}
{"molecule": "Nc1ncc(-c2ccc3ncnc(N4CCc5cc(F)c(Cl)cc54)c3c2)cc1CO", "testedSystem": "RXF 393 renal", "unitAnnotation": "%", "measValue": -26.6}
